Target: unphosphorylated c-KIT kinase (Homo sapiens (Human), UniProt P10721)
Sequence (P10721 other isoform, or with tags, fused parts or gaps): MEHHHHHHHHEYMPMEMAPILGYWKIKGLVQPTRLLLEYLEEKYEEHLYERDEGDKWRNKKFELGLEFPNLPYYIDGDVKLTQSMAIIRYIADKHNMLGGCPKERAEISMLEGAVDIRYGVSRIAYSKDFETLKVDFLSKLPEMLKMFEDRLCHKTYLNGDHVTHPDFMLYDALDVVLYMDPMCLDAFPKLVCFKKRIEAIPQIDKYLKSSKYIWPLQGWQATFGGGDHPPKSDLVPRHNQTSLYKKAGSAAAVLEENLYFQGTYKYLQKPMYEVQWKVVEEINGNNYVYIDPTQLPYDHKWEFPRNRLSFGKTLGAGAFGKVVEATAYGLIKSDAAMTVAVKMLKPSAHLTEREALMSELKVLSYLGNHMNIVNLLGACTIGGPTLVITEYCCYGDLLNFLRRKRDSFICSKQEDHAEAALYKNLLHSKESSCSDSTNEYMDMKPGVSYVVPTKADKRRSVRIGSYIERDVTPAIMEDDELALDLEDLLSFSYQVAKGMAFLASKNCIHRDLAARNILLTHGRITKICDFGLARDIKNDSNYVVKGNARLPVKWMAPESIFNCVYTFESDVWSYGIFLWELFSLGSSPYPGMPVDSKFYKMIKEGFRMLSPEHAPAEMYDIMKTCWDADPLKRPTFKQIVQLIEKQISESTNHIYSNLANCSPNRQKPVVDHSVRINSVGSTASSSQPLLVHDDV
Assay: c-KIT kinase assay, coupled pyruvate kinase/lactate dehydrogenase
Details: enzymatic assay, 1 mM ATP
MEASURED_METRIC: IC50 (nM)

>  <COMPOUND>
Cc1nc(-c2cnc(NC(C)C)n(C)c2=O)ccc1Oc1ccnc(-c2cnn(C)c2)c1 [Compound 1]

>  <TEST_VALUE>
864

$$$$

###

Assay: Plasma pharmacokinetics of Compound 1 in patients with advanced solid tumor malignancies and TGCT
Assay type: in vivo, human
Conditions: human, plasma, oral, 20 mg, Cohort 4 20 mg QD x 5 d, BIW maintenance dose; C1D8; Geo Mean
MEASURED_METRIC: Cmax (ng/mL)

>  <COMPOUND>
Cc1nc(-c2cnc(NC(C)C)n(C)c2=O)ccc1Oc1ccnc(-c2cnn(C)c2)c1 [Compound 1]

>  <UNIT>
ng/mL

>  <TEST_VALUE>
685

$$$$
